# Test system: ACHN renal
# assay-name: NCI-60 one-dose screen, 48 h (100 = growth as untreated, 0 = no growth, -100 = all killed)
# conditions: 10 µM unless noted
The panel holds about 83,000 compounds, 20% with a hit somewhere; the sample as a whole holds those more often.
reported-endpoint: growth (%)
Give your result in % as a bare value.

In the examples that follow, each entry is paired with its recorded growth.
[[record]]
compound = "C/C(=C\\CCc1ccsc1)CC/C=C(\\C)CCCN1CCSCC1"
reported_endpoint = "growth"
numeric_value = 94.7

[[record]]
compound = "Nc1nc(SCc2cccnc2)c2ncn(C3OC(CO)C(O)C3O)c2n1 (stereo not drawn)"
reported_endpoint = "growth"
numeric_value = 92.2

[[record]]
compound = "CC1CN(CC(O)c2ccc(Br)cc2)CCO1 (stereo not drawn)"
reported_endpoint = "growth"
numeric_value = 106


Task: Entry C/C=C(/C(=C/C)c1ccc(O)cc1)c1ccc(O)cc1 : reported growth = ?
Output: 38.4

Task: For Oc1ccc(/C=N/Nc2nc3ccccc3s2)c(O)c1 then?
Output: 23.2

Task: For COc1ccc([N+](=O)[O-])c(S(=O)(=O)c2ccc(Cl)cc2)n1 then?
Output: 26.9

Task: For CN1C(=O)C(C2=NN(C=O)C(c3ccc(F)cc3)C2)C(=O)N(C)C1=O (stereo not drawn) then?
Output: 107

Task: For O=C(Nc1nc2ccc(OC(F)(F)F)cc2s1)c1ccc(F)cc1 then?
Output: 7.56
